systemTested: R197A-SrtA (Sortase A) (Staphylococcus aureus, UniProt Q2FV99, R197A)
Construct: residues 60–206 (pG-srtAΔN59, pGEX-6P-1)
testProtocol: fluorescence quenching binding constant (KA); FRET inhibition reduced vs WT
readoutLabel: Kd (nM)

chemicalstructure=COc1ccc(CCc2cc(OC)c(OC)c(OC)c2)cc1O endpointvalue=2530

====

systemTested: V193A-SrtA (Sortase A) (Staphylococcus aureus, UniProt Q2FV99, V193A)
Construct: residues 60–206 (pG-srtAΔN59, pGEX-6P-1)
testProtocol: fluorescence quenching binding constant (KA); FRET inhibition reduced vs WT
readoutLabel: Kd (µM)

chemicalstructure=COc1ccc(CCc2cc(OC)c(OC)c(OC)c2)cc1O endpointvalue=2.28

Entry source: paper PMC6215257
